Recorded values, source ChEMBL document CHEMBL1154626.

Reported log10 of Ki values follow for various compounds
# study system: 5-hydroxytryptamine receptor 3A (Rattus norvegicus)
# test summary: Displacement of [3H]LY278584 from 5HT3 receptor in rat cortical homogenate
# condition description: read-out: Ki
Please keep in mind that the values are log10 of Ki expressed in nM.

The cases that follow already have their log10 of Ki on record.
compound string	measured property	value
Cc1cccc2nc(N3CCN(C)CC3)c3cccn3c12	log10 of Ki	-0.10
Fc1ccc2c(c1)nc(N1CCN(Cc3ncc[nH]3)CC1)c1cccn12	log10 of Ki	0.75
Cc1cccc2nc(N3CCN(CCn4ccnc4)CC3)c3cccn3c12	log10 of Ki	1.25
c1ccc(CN2CCN(c3nc4ncccc4n4cccc34)CC2)cc1	log10 of Ki	0.34
CN1CCN(c2nc3cc(F)ccc3n3cccc23)CC1	log10 of Ki	-0.09

Next compound, log10 of Ki to be filled in.
# compound `CN1CCN(c2nc3ncccc3n3cccc23)CC1` ; its log10 of Ki = 0.38

----------
# test summary: Ratio of drug level from brain to plasma in rat at 0.5 mg/kg, iv
# Assay type: ADME, organism-based
# Design: dose 0.5 mg/kg, route intravenous
measured property: Kp
The response must contain the number and no unit.

# compound `Fc1ccc2c(c1)nc(N1CCN(Cc3cnc[nH]3)CC1)c1cccn12` ; its Kp = 1.3

----------
# study system: 5-hydroxytryptamine receptor 3A (Cavia porcellus, UniProt O70212)
# Sequence (O70212 whole entry): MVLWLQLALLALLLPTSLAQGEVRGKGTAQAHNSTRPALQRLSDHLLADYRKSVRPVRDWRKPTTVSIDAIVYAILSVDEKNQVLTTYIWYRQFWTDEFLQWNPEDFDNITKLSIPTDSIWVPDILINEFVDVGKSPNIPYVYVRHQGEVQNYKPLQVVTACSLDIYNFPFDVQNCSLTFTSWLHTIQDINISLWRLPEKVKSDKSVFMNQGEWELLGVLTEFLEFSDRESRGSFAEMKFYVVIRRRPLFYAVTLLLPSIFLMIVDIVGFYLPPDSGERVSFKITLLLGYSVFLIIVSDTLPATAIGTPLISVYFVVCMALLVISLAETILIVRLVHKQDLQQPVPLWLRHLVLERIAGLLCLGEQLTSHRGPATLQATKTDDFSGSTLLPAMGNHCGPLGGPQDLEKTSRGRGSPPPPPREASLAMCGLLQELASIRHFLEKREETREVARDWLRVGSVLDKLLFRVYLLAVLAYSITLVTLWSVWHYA
# test summary: Antagonist activity at 5HT3 receptor in spontaneously beating guinea pig right atrium assessed as inhibition of serotonin-induced maximum response by noncompetitive binding assay
# Type: tissue-based, Cardiac atrium
# condition description: read-out: IC50
measured property: IC50 (nM)
The response must be a number in nM with no trailing unit.

The cases that follow already have their IC50 on record.
compound string	IC50, nM
Fc1ccc2c(c1)nc(N1CCN(Cc3cnc[nH]3)CC1)c1cccn12	270
Oc1ccc2c(c1)nc(N1CCN(Cc3c[nH]cn3)CC1)c1cccn12	2630

Next molecule, IC50 to be filled in.
# molecule `O=C(O)CN1CCN(c2nc3cc(F)ccc3n3cccc23)CC1` ; its IC50 = 1880

----------
# Tested on: Rattus norvegicus
# test summary: Antagonist activity at 5HT3 receptor in Sprague-Dawley rat assessed as inhibition of 1-phenylbiguanide-induced bradycardia at 10 ug/kg, iv administered 5 mins before 1-phenylbiguanide challenge measured after 5 to 30 mins post-treatment by von Bezold-Jarisch reflex test
# Type: functional
# Set-up: scale not given: the % may be the effect or the level left
measured property: Activity

compound string	value
Oc1ccc2c(c1)nc(N1CCN(Cc3c[nH]cn3)CC1)c1cccn12	62%

Next compound, Activity to be filled in.
# compound `Cc1cccc2nc(N3CCN(Cc4c[nH]cn4)CC3)c3cccn3c12` ; its Activity = 60%

----------
# Tested on: Rattus norvegicus
# test summary: Agonist activity at 5HT3 receptor in iv dosed Sprague-Dawley rat assessed as induction of bradycardia measured after 5 to 30 mins post-treatment by von Bezold-Jarisch reflex test
# Type: functional
Reported ED50 values follow for various compounds
The response must be a number in mg/kg with no trailing unit.

The cases that follow already have their ED50 on record.
compound string	study system	measure unit	value
O=C(O)CN1CCN(c2nc3cc(F)ccc3n3cccc23)CC1	Rattus norvegicus	mg/kg	0.036
Oc1ccc2c(c1)nc(N1CCN(Cc3c[nH]cn3)CC1)c1cccn12	Rattus norvegicus	mg/kg	0.028
NNC(=O)CN1CCN(c2nc3cc(F)ccc3n3cccc23)CC1	Rattus norvegicus	mg/kg	0.057

# compound `Cc1cccc2nc(N3CCN(Cc4c[nH]cn4)CC3)c3cccn3c12` ; its ED50 = 0.037

----------
# study system: 5-hydroxytryptamine receptor 3A (Rattus norvegicus)
# test summary: Displacement of [3H]LY278584 from 5HT3 receptor in rat cortical homogenate
# condition description: read-out: Ki
measured property: pKi
Keep it numeric: pKi is minus log10 of the concentration in mol/L.

The cases that follow already have their pKi on record.
compound string	pKi
Fc1ccc2c(c1)nc(N1CCN(CCn3ccnc3)CC1)c1cccn12	7.65
Fc1ccc2c(c1)nc(N1CCN(CC3=NCCN3)CC1)c1cccn12	7.52
Oc1ccc2c(c1)nc(N1CCN(Cc3c[nH]cn3)CC1)c1cccn12	8.65
Cc1cccc2nc(N3CCN(Cc4cnc[nH]4)CC3)c3cccn3c12	9.31
Fc1ccc2c(c1)nc(N1CCN(CCc3cnc[nH]3)CC1)c1cccn12	6.48

// assay 5-hydroxytryptamine receptor 3A (Rattus norvegicus), entry `NNC(=O)CN1CCN(c2nc3cc(F)ccc3n3cccc23)CC1` , pKi value = 7.35

// assay 5-hydroxytryptamine receptor 3A (Rattus norvegicus), entry `CN1CCN(c2nc3cccc(F)c3n3cccc23)CC1` , pKi value = 9.36

// assay 5-hydroxytryptamine receptor 3A (Rattus norvegicus), entry `Fc1ccc2c(c1)nc(N1CCN(Cc3cnc[nH]3)CC1)c1cccn12` , pKi value = 9.17

----------
# test summary: Ratio of drug level from brain to plasma in rat at 1 mg/kg, iv
# Assay type: ADME, organism-based
# Design: dose 1 mg/kg, route intravenous
measured property: Kp
The response must contain the number and no unit.

# compound `Fc1ccc2c(c1)nc(N1CCN(Cc3cnc[nH]3)CC1)c1cccn12` ; its Kp = 1

# compound `O=C(O)CN1CCN(c2nc3cc(F)ccc3n3cccc23)CC1` ; its Kp = 0.03

----------
# System: Brain
# test summary: Drug level in rat brain at 1 mg/kg, iv
# Type: ADME, organism-based
# Design: dose 1 mg/kg, route intravenous
# condition description: read-out: Drug uptake, in vivo
measured property: concentration (nM)
The response must be a number in nM with no trailing unit.

// assay Brain, entry `Fc1ccc2c(c1)nc(N1CCN(Cc3cnc[nH]3)CC1)c1cccn12` , concentration value = 210

----------
# study system: 5-hydroxytryptamine receptor 4 (Cavia porcellus, UniProt O70528)
# Sequence (O70528 whole entry): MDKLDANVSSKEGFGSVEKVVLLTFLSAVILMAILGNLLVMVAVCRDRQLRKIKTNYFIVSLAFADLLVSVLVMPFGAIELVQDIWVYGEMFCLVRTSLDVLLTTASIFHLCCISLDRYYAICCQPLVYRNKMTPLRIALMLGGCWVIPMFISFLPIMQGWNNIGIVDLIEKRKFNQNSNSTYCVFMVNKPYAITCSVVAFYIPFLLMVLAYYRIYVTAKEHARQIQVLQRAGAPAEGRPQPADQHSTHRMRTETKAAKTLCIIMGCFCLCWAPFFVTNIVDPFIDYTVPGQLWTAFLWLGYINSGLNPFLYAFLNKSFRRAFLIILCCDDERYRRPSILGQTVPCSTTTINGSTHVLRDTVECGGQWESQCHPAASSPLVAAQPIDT
pKi: −log10 of the molar value.
measured property: pKi

# compound `c1ccc2nc(N3CCNCC3)ccc2c1` ; its pKi = < 5.00

----------
# study system: 5-hydroxytryptamine receptor 3A (Rattus norvegicus, UniProt P35563)
# Sequence (P35563 whole entry): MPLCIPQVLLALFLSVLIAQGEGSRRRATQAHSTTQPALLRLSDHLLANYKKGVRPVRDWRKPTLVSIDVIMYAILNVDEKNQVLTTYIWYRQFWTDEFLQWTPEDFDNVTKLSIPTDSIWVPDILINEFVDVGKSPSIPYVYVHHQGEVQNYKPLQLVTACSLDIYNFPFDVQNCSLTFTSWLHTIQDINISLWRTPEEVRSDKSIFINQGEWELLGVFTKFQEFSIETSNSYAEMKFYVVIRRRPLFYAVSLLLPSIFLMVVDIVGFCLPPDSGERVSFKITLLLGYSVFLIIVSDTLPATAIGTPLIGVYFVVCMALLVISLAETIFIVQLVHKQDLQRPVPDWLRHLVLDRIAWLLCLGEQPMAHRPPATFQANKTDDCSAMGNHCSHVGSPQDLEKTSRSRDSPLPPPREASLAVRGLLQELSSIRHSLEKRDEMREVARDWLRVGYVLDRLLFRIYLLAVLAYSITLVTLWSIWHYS
# test summary: Displacement of [3H]LY278584 from 5HT3 receptor in rat cortical homogenate
measured property: pKi
Keep it numeric: pKi is minus log10 of the concentration in mol/L.

compound string	pKi
Cc1cccc2nc(N3CCN(Cc4ccccc4)CC3)c3cccn3c12	8.06

Next compound, pKi to be filled in.
// assay 5-hydroxytryptamine receptor 3A (Rattus norvegicus, UniProt P35563), entry `Fc1ccc2c(c1)nc(N1CCN(Cc3ccccc3)CC1)c1cccn12` , pKi value = 7.89

----------
Reported pKi values follow for various compounds
# study system: UniProt:P61169
# Sequence (P61169 whole entry): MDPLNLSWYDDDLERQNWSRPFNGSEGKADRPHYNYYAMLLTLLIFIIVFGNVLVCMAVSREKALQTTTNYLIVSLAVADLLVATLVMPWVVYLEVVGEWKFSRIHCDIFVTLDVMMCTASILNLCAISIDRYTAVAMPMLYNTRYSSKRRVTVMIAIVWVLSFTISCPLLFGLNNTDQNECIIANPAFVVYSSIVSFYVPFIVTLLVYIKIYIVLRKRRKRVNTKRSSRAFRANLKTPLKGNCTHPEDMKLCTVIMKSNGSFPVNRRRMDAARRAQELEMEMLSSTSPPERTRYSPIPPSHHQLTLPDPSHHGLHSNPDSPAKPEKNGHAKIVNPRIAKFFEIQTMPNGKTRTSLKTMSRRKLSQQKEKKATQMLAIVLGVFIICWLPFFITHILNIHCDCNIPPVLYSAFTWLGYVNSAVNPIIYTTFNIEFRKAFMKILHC
# test summary: Displacement of [3H]spiperone from dopamine D2 receptor in rat striatum
pKi: −log10 of the molar value.

The cases that follow already have their pKi on record.
compound string	pKi
Fc1ccc2c(c1)nc(N1CCN(Cc3cnc[nH]3)CC1)c1cccn12	< 5.00
Fc1ccc2c(c1)nc(N1CCN(Cc3ncc[nH]3)CC1)c1cccn12	< 5.00

Next compound, pKi to be filled in.
// assay UniProt:P61169, entry `Cc1cccc2nc(N3CCN(Cc4cnc[nH]4)CC3)c3cccn3c12` , pKi value = < 5.00

----------
Reported Ki values follow for various molecules
# study system: D(1A) dopamine receptor (Rattus norvegicus)
# Sequence (P18901 whole entry): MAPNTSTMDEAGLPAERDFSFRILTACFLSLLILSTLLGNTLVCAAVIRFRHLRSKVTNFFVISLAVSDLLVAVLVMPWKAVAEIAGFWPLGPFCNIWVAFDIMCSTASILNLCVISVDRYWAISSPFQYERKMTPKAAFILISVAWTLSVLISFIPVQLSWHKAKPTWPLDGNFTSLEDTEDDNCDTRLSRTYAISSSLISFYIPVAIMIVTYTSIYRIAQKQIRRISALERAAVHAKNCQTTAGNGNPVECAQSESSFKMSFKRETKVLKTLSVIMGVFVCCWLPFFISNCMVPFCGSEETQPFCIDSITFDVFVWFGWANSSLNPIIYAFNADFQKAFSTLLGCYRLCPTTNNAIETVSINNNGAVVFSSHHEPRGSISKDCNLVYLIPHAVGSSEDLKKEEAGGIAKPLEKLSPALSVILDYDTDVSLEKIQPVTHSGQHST
# test summary: Displacement of [3H]SCH-23390 from dopamine D1 receptor in rat striatum

# molecule `Fc1ccc2c(c1)nc(N1CCN(Cc3ncc[nH]3)CC1)c1cccn12` ; its Ki = > 10 µM

# molecule `Cc1cccc2nc(N3CCN(Cc4cnc[nH]4)CC3)c3cccn3c12` ; its Ki = > 10 µM

# molecule `Fc1ccc2c(c1)nc(N1CCN(Cc3cnc[nH]3)CC1)c1cccn12` ; its Ki = > 10 µM
